Reported TGI is given for each of the following compounds.
- Test system: SN12C renal
- ASSAY_REMARKS: NCI tumour cell line growth inhibition, 48 h
Give the number; µM is assumed, so skip it.

Q) Entry under review: CCNCCNc1cc(-c2cccc(C(F)(F)F)c2)c(C#N)c2nc3ccccc3n12 . Reported TGI?
A) 3.37

Q) Given C=C1C(=O)OC2/C=C(\C)CC(O)/C=C(/CO)CC(OC(=O)/C(C)=C/C)C12 (configuration not stated) , state its recorded TGI.
A) 437

Q) # input compound: CN(C)CCOc1nc2ccccc2c2c1-c1ccc(Cl)cc1C2=O ; wanted: its TGI
A) 2.36

Q) For CCCCOc1ccc(S(=O)(=O)/N=C(\NN)Nc2ccc(Cl)cc2)cc1 , what is its reported TGI?
A) 38.6

Q) Any idea what TGI was measured for C[C@@H](Oc1cc(-c2cnn(C3CC4(CCCNC4)C3)c2)cnc1N)c1c(Cl)ccc(F)c1Cl (some centres not stated) ?
A) 8.97

Q) # TGI lookup, item Nc1ccc(C(=O)NN2C(=O)C(Cl)C2c2cccc([N+](=O)[O-])c2)cc1 (configuration not stated)
A) 36.9

Q) Reported TGI, compound CCC[CH2][Sn]1([CH2]CCC)[O]C(=O)c2cc(C)ccc2[O]1 : ____
A) 1.86

###

- Test system: SF-268 CNS
- ASSAY_REMARKS: NCI tumour cell line growth inhibition, 48 h
In this section, each of the compounds is paired with its reported TGI.
Please state the figure in µM; there is no need to write the unit.

CO[C@@]12CC(=O)/C(=C(O)\C=C\c3ccccc3)C(=O)[C@]1(OC)Cc1ccccc1O2 :: 91.1

Next item in the queue.
Q) // returns reported TGI for input C[C@@H](Oc1cc(-c2cnn(C3CC4(CCCNC4)C3)c2)cnc1N)c1c(Cl)ccc(F)c1Cl (stereo not given in full)
A) 6.02

###

- System: SF-268 CNS
- ASSAY_REMARKS: NCI tumour cell line growth inhibition, 48 h
READOUT_KIND: TGI

CC[C@H](C)[C@H](NC(=O)C12CC(NC(C)=O)(C1)C2)C(=O)N(C)[C@H](C[C@@H](OC(C)=O)c1nc(C(=O)N[C@@H](Cc2ccccc2)C[C@H](C)C(=O)OC)cs1)C(C)C :: > 16.7 µM
CCOC(=O)C1CC/C(=C(/C#N)C(=O)OC)N1 (centres undefined) :: > 100 µM
CCCCOc1ccc(S(=O)(=O)/N=C(\NN)Nc2ccc(Cl)cc2)cc1 :: 33 µM

Q) Give its TGI value. Item: O=C1C=C(Nc2ccccc2C(=O)CC(=O)C(=O)Nc2ccc(Cl)c(Cl)c2)c2ccccc2C1=O
A) > 100 µM

Q) Consider the compound shown here: COc1ccc2c(c1)c1c3c(ccc4ncn2c43)N(CCN(C)C)CCN=1 What is its recorded TGI?
A) 4.24 µM

Q) Which TGI is reported for this compound? CC(OCc1ccccc1)C(NC(=O)C1CSSCC(NC(=O)C(Cc2ccccc2)NC(=O)OCc2ccccc2)C(=O)NC(Cc2ccccc2)C(=O)NC(Cc2cn(C=O)c3ccccc23)C(=O)NC(CCCCNC(=O)OCc2ccccc2)C(=O)NC(C(C)OCc2ccccc2)C(=O)N1)C(N)=O (centres undefined)
A) > 100 µM

Q) Any idea what TGI was measured for CCOC(=O)N1CCC(=O)C[C@@H]1C/C=C/P1(=O)O[C@H](c2ccccc2)C(C)N1C(C)C (some centres undefined) ?
A) > 100 µM

Q) What value of measured TGI is listed for CC1(C)CC2CC(C)(CN2c2ncnc3ccc(Br)cc23)C1 (centres undefined) ?
A) 37.9 µM

Q) Which TGI reading was recorded for the compound NC(=O)C(=CN1CC(=O)NC1=S)C(N)=O ?
A) > 100 µM

###

Listing: TGI of selected molecules
- Test system: UACC-62 melanoma
- ASSAY_REMARKS: NCI tumour cell line growth inhibition, 48 h

Below: 4 molecules and their reported TGI.
Cc1cc(C)c2c(c1)C(=O)C1(C2)Cc2c(ccc(C)c2C)C1=O (stereo not given) :: > 100 µM
CS(=O)(=O)OCc1c(O)c2c(c(O)c1COS(C)(=O)=O)C(=O)C=CC2=O :: > 100 µM
CCN(CC)c1ccc2nc3c4ccccc4c(=NC(=O)c4ccccc4-c4c5ccc(N(CC)CC)cc5[o+]c5cc(N(CC)CC)ccc45)cc-3oc2c1 :: 17.9 µM
O=C(NNC(=O)c1ccccc1Cl)c1ccccc1O :: > 100 µM

Q) State the recorded TGI for this entry: C=CCC1=CC2(OC)C(=O)C(OC)(OC)C1C1C(OC)(OC)C(=O)C(OC)=CC12CC=C (stereo not given)
A) > 100 µM

Q) Requested read-out: TGI. Entry: COc1cnc2c(c1)C(=O)c1c-2n(CCCN2CCN(CCO)CC2)c(=O)c2cc([N+](=O)[O-])ccc12
A) 3.16 µM

Q) Any idea what TGI was measured for CCCCCCC1N=C(N)N=C(N)N1c1ccc(Cl)cc1 (stereo not given) ?
A) 37.6 µM

Q) Give its TGI value. Item: O=C(O)c1cc(N(Cc2ccccc2O)Cc2cc(O)ccc2O)ccc1O
A) > 100 µM

Q) Requested read-out: TGI. Entry: O=C1c2ccccc2C(=O)c2c(NC(=O)c3ccc4c5c(ncnc35)-c3ccccc3C4=O)cccc21
A) > 100 µM

Q) Can you look up the measured TGI of Cc1cccc(N=C2NC(=O)C(CC(=O)Nc3ccc(Cl)cc3C)S2)c1 (stereo not given) for me?
A) > 100 µM

###

TGI listing for selected compounds.
- Test system: ACHN renal
- ASSAY_REMARKS: NCI tumour cell line growth inhibition, 48 h

Some solved entries appear below for comparison.
OC1(c2ccc3ccccc3c2)c2ccc3ccccc3c2C2=NCCN21 (stereo not given) :: > 100 µM
COc1cc(C2C(Cl)C(=O)N2NC(=O)Cc2ccccc2)ccc1O (stereo not given) :: > 100 µM
Cc1cc(=O)oc2c(CNC(C(=O)O)C(C)O)c(O)ccc12 (stereo not given) :: > 100 µM
Cc1cc(Br)cc(C)c1NC(=O)C(=O)C1C(=O)C(CC2C(=O)c3ccccc3C2=O)C(=O)CC1(C)C (stereo not given) :: > 100 µM

Q) Using the record for CNC(=O)OCCN1c2ccccc2Sc2ccccc21 , report its TGI.
A) > 100 µM

###

- Test system: NCI-H460 lung
- ASSAY_REMARKS: NCI tumour cell line growth inhibition, 48 h
In this section we review reported TGI values for a set of compounds.

Some compounds with recorded TGI:
CC[C@H](C)[C@H](NC(=O)C12CC(NC(C)=O)(C1)C2)C(=O)N(C)[C@H](C[C@@H](OC(C)=O)c1nc(C(=O)N[C@@H](Cc2ccccc2)C[C@H](C)C(=O)OC)cs1)C(C)C :: > 16.7 µM
O=C(NC/C(Cl)=C/Cl)Nc1cccc2c1CCCC2 :: > 100 µM
COC(=O)Nc1nc2ccc(Sc3ccccc3)cc2[nH]1 :: 11.6 µM
Cc1cc(-c2nc3cc(F)ccc3s2)ccc1NC(=O)C(C)N (centres undefined) :: 5.98 µM
CC(C)N(C[C@H]1O[C@@H](n2cnc3c(N)ncnc32)[C@H](O)[C@@H]1O)C1CC(CCc2nc3ccc(C(C)(C)C)cc3[nH]2)C1 (some centres undefined) :: > 100 µM
C=C1C(=O)OC2/C=C(\C)CC(O)/C=C(/CO)CC(OC(=O)/C(C)=C/C)C12 (centres undefined) :: 168 µM

Q) What does the record list as TGI for O=P1(O)c2ccccc2CS(=O)(=O)Cc2ccccc21 ?
A) > 100 µM

Q) Form field: reported TGI of Oc1ccc2ccccc2c1Cc1c(O)ccc2ccccc12
A) > 100 µM

Q) Entry CC(OCc1ccccc1)C(NC(=O)C1CSSCC(NC(=O)C(Cc2ccccc2)NC(=O)OCc2ccccc2)C(=O)NC(Cc2ccccc2)C(=O)NC(Cc2cn(C=O)c3ccccc23)C(=O)NC(CCCCNC(=O)OCc2ccccc2)C(=O)NC(C(C)OCc2ccccc2)C(=O)N1)C(N)=O (centres undefined) : reported TGI = ?
A) > 61.8 µM

Q) Give its TGI value. Item: Cn1c2c(cc(-c3ccccc3)c1=O)COc1ccccc1-2
A) 70.7 µM

Q) Using the record for Cc1c(N2C(=O)/C(=C\c3ccc(N(C)C)cc3)N=C2c2ccccc2)c(=O)n(-c2ccccc2)n1C , report its TGI.
A) > 100 µM

Q) Given the compound CCCC(=O)OCC(O)CO (centres undefined) , what is its reported TGI?
A) > 5000 µM

Q) Would you kindly share the measured TGI for O=c1[nH]c2c(O)cccc2c2cc3c(c(O)c12)OCO3 ?
A) 36.6 µM

Q) Which value of TGI has been reported for ClCC1(CCl)COC1 in the records?
A) > 100 µM

###

- Tested on: OVCAR-5 ovarian
- ASSAY_REMARKS: NCI tumour cell line growth inhibition, 48 h
This section presents compounds with their documented TGI values.
Numeric answer only, unit µM assumed.

Q) # input compound: O=C(/C=C/c1ccc(Cl)c(Cl)c1)C1CCC(Cl)CC1 (stereo not drawn) ; wanted: its TGI
A) 43.3

Q) Query (compound): Nc1ccc(C(=O)NN2C(=O)C(Cl)C2c2cccc([N+](=O)[O-])c2)cc1 (stereo not drawn) ; field requested: TGI
A) 37.7

Q) Find the recorded TGI belonging to CSc1ccc(C2=NN(C(=O)c3ccc(N)cc3)C(c3ccc(F)cc3)C2)cc1 (stereo not drawn) and report it.
A) 31.2

Q) Request the reported TGI associated with COc1ccc(-n2sc(=O)n(Cc3ccc(COC(=O)C(C)c4ccc(CC(C)C)cc4)cc3)c2=O)cc1 (stereo not drawn)
A) 11.8
